# System: LoVo
# Assay name: Inhibition of cells growth by colorimetric (SRB) assay, LoVo
# Run conditions: Homo sapiens, LoVo, 48 h, read-out: GI50 LOVO, SRB assay, 48 hours exposure
Overview of recorded GI50 for various compounds
Enter your answer as a number in µM; do not include the unit.

{"columns": ["Compound", "Measure name", "Measured"],
 "data": [
  ["Cc1ccc2c(-c3ccnc(N)n3)c3ccnc(N)n3c2n1.Cl", "GI50", 0.456]
]}

Give the measured GI50 of Nc1nccc(-c2c3c(Cl)ccnc3n3c(N)nccc23)n1 . 1.26

Try this compound too: Cl.Nc1nccc(-c2c3cc4ccccc4nc3n3c(N)nccc23)n1 0.884

Try this compound too: Nc1nccc2c(-c3ccncn3)c3c(OCc4ccccc4)ccnc3n12 5.02

Try this compound too: Nc1nccc2c(-c3ccnc(O)n3)c3cccnc3n12 4.06

Try this compound too: CSc1nccc2c(C(C)C)c3cccnc3n12 23

Try this compound too: Nc1nccc2c(-c3ccnc(Oc4ccccc4)n3)c3cccnc3n12 0.553

Try this compound too: COc1ccc2nc3c(cc2c1)c(-c1ccnc(N)n1)c1ccnc(N)n13 [Compound 19b] 3.25

Try this compound too: Nc1nccc(-c2c3cc(F)c(Cl)nc3n3c(N)nccc23)n1 12
